Source listed as patent US20260092071A1.

target: SMARCA4 (Homo sapiens); assay: HiBit assay in engineered HT1080 CRISPR knock-in cell, 6 hrs (B series), SMARCA4; type: cell-based; conditions: HT-1080, HT1080 CRISPR knock-in cells, 6 hrs incubation; read-out: SMARC A4 HT1080 HiBit Dmax(%)
Sequence (P51532 whole entry): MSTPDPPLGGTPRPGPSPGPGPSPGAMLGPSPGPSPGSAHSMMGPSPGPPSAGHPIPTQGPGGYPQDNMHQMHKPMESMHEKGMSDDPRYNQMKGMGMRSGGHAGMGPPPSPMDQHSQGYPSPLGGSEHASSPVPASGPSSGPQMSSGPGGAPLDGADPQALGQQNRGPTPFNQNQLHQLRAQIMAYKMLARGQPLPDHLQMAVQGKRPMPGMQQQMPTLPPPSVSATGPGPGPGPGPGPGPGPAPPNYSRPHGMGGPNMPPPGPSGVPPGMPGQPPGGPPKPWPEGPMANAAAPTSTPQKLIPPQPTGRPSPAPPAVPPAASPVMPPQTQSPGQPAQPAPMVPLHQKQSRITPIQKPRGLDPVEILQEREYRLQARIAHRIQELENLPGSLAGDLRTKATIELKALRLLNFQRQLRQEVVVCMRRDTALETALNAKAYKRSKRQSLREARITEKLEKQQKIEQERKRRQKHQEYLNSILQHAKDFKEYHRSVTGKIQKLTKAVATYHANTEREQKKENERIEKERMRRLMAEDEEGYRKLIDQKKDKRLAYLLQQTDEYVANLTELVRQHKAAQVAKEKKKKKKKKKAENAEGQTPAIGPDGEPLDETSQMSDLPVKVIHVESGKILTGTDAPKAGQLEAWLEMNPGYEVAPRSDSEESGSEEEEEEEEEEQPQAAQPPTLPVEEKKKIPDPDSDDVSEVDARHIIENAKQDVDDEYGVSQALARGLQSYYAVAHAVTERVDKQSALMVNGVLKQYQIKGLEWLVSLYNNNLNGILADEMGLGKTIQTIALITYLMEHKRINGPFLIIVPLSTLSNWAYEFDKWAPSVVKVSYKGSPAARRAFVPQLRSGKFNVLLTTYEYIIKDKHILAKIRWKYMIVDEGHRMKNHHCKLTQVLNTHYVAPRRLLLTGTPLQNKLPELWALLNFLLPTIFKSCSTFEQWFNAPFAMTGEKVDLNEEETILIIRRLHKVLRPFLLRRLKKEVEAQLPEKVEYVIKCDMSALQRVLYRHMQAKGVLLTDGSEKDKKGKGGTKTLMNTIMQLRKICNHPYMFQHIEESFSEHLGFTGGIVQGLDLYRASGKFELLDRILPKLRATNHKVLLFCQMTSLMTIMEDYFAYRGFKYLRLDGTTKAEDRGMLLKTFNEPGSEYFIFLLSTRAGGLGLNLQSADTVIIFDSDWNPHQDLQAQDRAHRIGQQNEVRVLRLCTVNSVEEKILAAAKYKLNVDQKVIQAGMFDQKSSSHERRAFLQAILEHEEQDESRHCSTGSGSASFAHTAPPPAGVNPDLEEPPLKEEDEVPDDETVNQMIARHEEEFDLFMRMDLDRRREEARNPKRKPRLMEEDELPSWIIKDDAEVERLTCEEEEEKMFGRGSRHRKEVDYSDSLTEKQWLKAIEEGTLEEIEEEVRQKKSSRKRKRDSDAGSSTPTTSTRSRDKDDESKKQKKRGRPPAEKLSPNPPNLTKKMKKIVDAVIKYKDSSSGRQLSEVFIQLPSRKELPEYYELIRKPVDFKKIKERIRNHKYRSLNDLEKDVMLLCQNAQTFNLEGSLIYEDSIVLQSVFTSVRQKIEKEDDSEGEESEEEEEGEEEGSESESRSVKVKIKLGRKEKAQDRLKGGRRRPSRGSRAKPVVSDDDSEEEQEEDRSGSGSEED

Compound	Test target	Dmax
Cc1ncsc1-c1ccc([C@H](CN2CCOCC2)NC(=O)[C@@H]2C[C@@H](O)CN2C(=O)[C@@H](c2cc(O[C@H]3CC[C@H](CN4CCN(c5ccc6c(c5)-n5c(nc(=O)c7c(Cl)cccc75)C65CCCCC5)CC4)CC3)no2)C(C)C)cc1	SMARCA4 (Homo sapiens)	> 90%
Cc1ncsc1-c1ccc([C@H](CN2CCOCC2)NC(=O)[C@@H]2C[C@@H](O)CN2C(=O)[C@@H](c2cc(O[C@H]3CC[C@H](CN4CCC(c5ccc6c(c5)-n5c(nc(=O)c7c(Cl)cccc75)C65CCCCC5)CC4)CC3)no2)C(C)C)cc1	SMARCA4 (Homo sapiens)	> 90%
Cc1ncsc1-c1ccc([C@H](C)NC(=O)[C@@H]2C[C@@H](O)CN2C(=O)[C@H](C(C)C)n2cc(CCCCN3CCC(c4ccc5c(c4)-n4c(nc(=O)c6c(Cl)cccc64)C5(C)C)CC3)nn2)cc1	SMARCA4 (Homo sapiens)	70 to 90%
Cc1ncsc1-c1ccc([C@H](C)NC(=O)[C@@H]2C[C@@H](O)CN2C(=O)C(c2cc(CN3CCC(c4ccc5c(c4)-n4c(nc(=O)c6c(Cl)cccc64)C5(C)C)CC3)no2)C(C)C)cc1 (stereo partly shown)	SMARCA4 (Homo sapiens)	< 50%
